Measured values drawn from patent US20240116985A1 for this set.

A collection of compounds and their measured pIC50
# Tested on: full-length beta-Catenin (Uniprot ID P35222) (Homo sapiens)
# Construct: 10 nM full-length beta-Catenin (Uniprot ID P35222)
# Sequence (P35222 whole entry): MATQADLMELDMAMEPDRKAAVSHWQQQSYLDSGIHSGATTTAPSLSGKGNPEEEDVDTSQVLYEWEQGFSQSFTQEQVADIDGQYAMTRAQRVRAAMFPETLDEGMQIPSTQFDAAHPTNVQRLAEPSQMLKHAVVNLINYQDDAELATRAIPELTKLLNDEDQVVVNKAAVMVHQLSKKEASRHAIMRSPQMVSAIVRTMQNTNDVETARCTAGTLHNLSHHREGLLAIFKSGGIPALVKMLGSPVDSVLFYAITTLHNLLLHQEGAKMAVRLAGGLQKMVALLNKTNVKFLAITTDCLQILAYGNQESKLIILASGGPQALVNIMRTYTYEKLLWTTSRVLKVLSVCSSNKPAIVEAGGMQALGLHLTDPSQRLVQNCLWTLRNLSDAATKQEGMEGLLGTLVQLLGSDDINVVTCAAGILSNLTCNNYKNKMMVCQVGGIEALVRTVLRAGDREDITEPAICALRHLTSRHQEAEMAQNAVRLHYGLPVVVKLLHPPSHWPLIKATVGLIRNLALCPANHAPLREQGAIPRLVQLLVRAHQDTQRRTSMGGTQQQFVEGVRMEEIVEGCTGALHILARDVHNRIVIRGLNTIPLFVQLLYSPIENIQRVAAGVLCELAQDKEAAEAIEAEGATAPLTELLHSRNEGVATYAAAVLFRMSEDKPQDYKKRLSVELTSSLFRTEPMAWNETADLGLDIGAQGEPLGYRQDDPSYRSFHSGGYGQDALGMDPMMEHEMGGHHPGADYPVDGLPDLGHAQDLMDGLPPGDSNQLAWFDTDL
# Measurement protocol: Fluorescence polarization IC50 (beta-catenin / 5FAM-TCF4 10-53 competition)
# Assay type: binding
# Stated conditions: fluorescence polarization; read-out: beta-Catenin FP IC50
Keep in mind that pIC50 stands for -log10 of concentration in molar terms.

# Compound, Attribute measured, Observed
data = [
    ("CC(=O)N1CCC[C@]12CC=CCCCC1(CCCC=CCCCCCC[C@@](C)(C(=O)N[C@@H](Cc3ccccc3)C(=O)N[C@@H](Cc3csc4ccccc34)C(=O)N[C@@H](CCC(N)=O)C(N)=O)NC(=O)[C@H](CCC(N)=O)NC(=O)[C@H](Cc3cccs3)NC(=O)[C@H](C)NC(=O)[C@H](C)NC(=O)[C@H](CCC(=O)O)NC(=O)[C@H](CC(=O)O)NC1=O)NC(=O)[C@H](C)NC(=O)[C@H](CC(=O)O)NC2=O (some centres unmarked) [I-486]", "pIC50", 6.83),
    ("CC(=O)N1CCC[C@]12CC=CCCCC1(CCCC=CCCCOC(=O)N3CC[C@@](C(=O)N[C@@H](Cc4ccccc4)C(=O)N[C@@H](Cc4csc5ccccc45)C(=O)N[C@@H](CCCCN)C(N)=O)(C3)NC(=O)[C@H](CC(C)C)NC(=O)[C@H](Cc3ccccc3)NC(=O)[C@H](C)NC(=O)[C@H](CO)NC(=O)[C@H](CCC(N)=O)NC(=O)[C@H](CC(=O)O)NC1=O)NC(=O)[C@H](CC1CCCCC1)NC(=O)[C@H](CC(N)=O)NC2=O (some centres unmarked)", "pIC50", 5.47),
    ("CC(=O)N1CCC[C@]12CC=CCCCC1(CCCC=CCCCOC(=O)N3CC[C@@](C(=O)N[C@@H](Cc4ccsc4)C(=O)N[C@@H](Cc4cccc(F)c4F)C(=O)N[C@@H](CO)C(N)=O)(C3)NC(=O)[C@H](CC(C)C)NC(=O)[C@H](Cc3ccccc3)NC(=O)[C@H](C)NC(=O)[C@H](C)NC(=O)[C@H](CC(=O)O)NC(=O)[C@H](CC(=O)O)NC1=O)NC(=O)[C@H](CC(C)(C)C)NC(=O)[C@H](CC(=O)O)NC2=O (some centres unmarked)", "pIC50", 6.69),
    ("CC(=O)N1CCC[C@]12CC=CCCCC1(CCCC=CCCCOC(=O)N3CC[C@@](C(=O)N[C@@H](Cc4ccsc4)C(=O)N[C@@H](Cc4csc5ccccc45)C(=O)N[C@@H](CCC(N)=O)C(N)=O)(C3)NC(=O)[C@H](CCO)NC(=O)[C@H](Cc3cccc(C(=O)O)c3)NC(=O)[C@H](C)NC(=O)[C@H](C)NC(=O)[C@H](Cc3c[nH]cn3)NC(=O)[C@H](CC(=O)O)NC1=O)NC(=O)[C@H](CC(C)(C)C)NC(=O)[C@H](CC(=O)O)NC2=O (some centres unmarked) [I-2120]", "pIC50", 7.96),
]

Task: Data request, read-out pIC50, for CC(=O)N1CCC[C@]12CC=CCCCC1(CCCC=CCCCCCC[C@@](C)(C(=O)N[C@@H](Cc3ccsc3)C(=O)N[C@@H](Cc3csc4ccccc34)C(=O)N[C@@H](CCC(N)=O)C(N)=O)NC(=O)[C@H](CC(N)=O)NC(=O)[C@H](Cc3ccccc3)NC(=O)[C@H](C)NC(=O)[C@H](C)NC(=O)[C@H](CC(=O)O)NC(=O)[C@H](CC(=O)O)NC1=O)NC(=O)[C@H](CC(C)(C)C)NC(=O)C[C@H](CC(=O)O)NC2=O (some centres unmarked) [I-1164]
Output: 6.79
